Tested on: SK-OV-3 ovarian
Test: NCI-60 one-dose screen, 48 h (100 = growth as untreated, 0 = no growth, -100 = all killed)
Details: 10 µM unless noted
About 83,000 compounds went through this panel and 20% of them were active in at least one assay; those are over-represented in the sample as a whole.
Readout type: growth (%)
Report only the number, with the unit % understood.

[[record]]
compound = "CC(=O)[O][Hg][c]1c(N)c(C)cc(C)c1F"
readout_type = "growth"
observed = 69.8

[[record]]
compound = "COc1ccc2nc(NC(=O)COc3cc(/C=C\\c4cc(OC)c(OC)c(OC)c4)ccc3OC)sc2c1"
readout_type = "growth"
observed = 8.6

[[record]]
compound = "C=CCc1cc2c(cc1OCC)OCO2"
readout_type = "growth"
observed = 80.3

[[record]]
compound = "CCn1c2ccccc2c2cc(C(=O)c3cccc4c3CCCN4)ccc21"
readout_type = "growth"
observed = 106

[[record]]
compound = "Clc1ccc(N2COOC3(OOC2)C2CC4CC(C2)CC3C4)cc1"
readout_type = "growth"
observed = 92.9

[[record]]
compound = "O=C(N/N=C\\c1ccc(N(CCCl)CCCl)cc1)c1cccc([N+](=O)[O-])c1"
readout_type = "growth"
observed = 82.7

[[record]]
compound = "CC12CC=CCC1CCC1C2CCC2(C)C(c3ccc(=O)oc3)CCC12O (stereo not given)"
readout_type = "growth"
observed = -8.44

[[record]]
compound = "CCOP(=O)(Nc1ccc2c(c1)/C(=N/NC(N)=S)c1ccccc1-2)OCC"
readout_type = "growth"
observed = 114

[[record]]
compound = "Cn1cc(C2=C(c3cn(C4CCN(Cc5ccccn5)CC4)c4ccccc34)C(=O)NC2=O)c2ccccc21"
readout_type = "growth"
observed = 83.5


--- query ---
Which measured growth value corresponds to CC(=O)[C@H]1CC[C@H]2[C@@H]3CC[C@H]4C[C@H](N)CC[C@]4(C)[C@H]3CC[C@]12C ?
109

###

Measured growth, listed per entry for reference.
Test system: UO-31 renal
Assay: NCI-60 one-dose screen, 48 h (100 = growth as untreated, 0 = no growth, -100 = all killed)
Conditions: 10 µM unless noted
This is part of a sample that, as a whole, favours compounds with a hit. Of some 83,000 tested, about 20% had one in any assay.
Use % as the unit, but write only the number.

[[record]]
compound = "COC(=O)[C@@]1(O)C[C@H]2O[C@]1(C)n1c3ccccc3c3c4c(c5c6ccccc6n2c5c31)C(=O)NC4"
target_desc = "UO-31 renal"
observed = -57.9

[[record]]
compound = "CN(C)C(=O)Oc1ccccc1-c1ccccc1"
target_desc = "UO-31 renal"
observed = 86.3


Quick check: growth of OCc1ccc2c(c1)OCO2 ?
88

I would be grateful if you could share the reported growth for c1cnc2[nH]cc(-c3csc(-c4cn(CCCCN5CCOCC5)c5ccccc45)n3)c2c1 .
25.4

// query growth value for entry CCCCN(CCCC)P(=O)(Oc1ccccc1)Oc1ccccc1
42.2

Could you tell me which growth is on file for NC(=O)CNc1ccc([As]=[As]c2ccc(NCC(N)=O)cc2)cc1 (stereo unspecified) ?
54.4

###

Tested on: SK-MEL-5 melanoma
Experiment: NCI-60 one-dose screen, 48 h (100 = growth as untreated, 0 = no growth, -100 = all killed)
Details: 10 µM unless noted
About 83,000 compounds went through this panel and 20% of them were active in at least one assay; those are over-represented in the sample as a whole. Active and inactive are the calls of the source. The calls were made as follows: active = growth percent below 10; inactive = the rest.
Readout type: growth

Which growth value belongs to O=C(NCCN1CC1)C(=O)NCCN1CC1 ?
94.6% (inactive)

Which value of growth has been reported for CC[C@H](C)[C@H](NC(=O)C12C3C4C1C1C2C3C41NC)C(=O)N(C)[C@H](C[C@@H](OC(C)=O)c1nc(C(=O)N[C@@H](Cc2ccccc2)C[C@H](C)C(=O)OC)cs1)C(C)C (stereo not given in full) in the records?
3.34% (active)

I am curious: what growth value has been reported for COC(=O)[C@@H](C)C[C@H](Cc1ccc(F)cc1)NC(=O)c1csc([C@@H](C[C@H](C(C)C)N(C)C(=O)[C@@H](NC(=O)[C@H]2CCCCN2C)C(C)C)OC(C)=O)n1 ?
-32.8% (active)

I have this molecule here, O=NN1CCCc2cccc(O)c21 , and I need its recorded growth.
19.9% (inactive)

Which growth is listed for O=P(N1CC1)(N1CC1)N1CCc2ccccc21 ?
109% (inactive)

###

System: SK-OV-3 ovarian
Test: NCI-60 one-dose screen, 48 h
Conditions: 10 µM unless noted
The panel holds about 83,000 compounds, 20% with a hit somewhere; the sample as a whole holds those more often. Activity calls are given as the source filed them. How the source made its calls: active means growth percent below 10; inactive means the rest.
Hi! Could you answer with just one of these? 1.0 = active, 0.0 = inactive

[[record]]
molecule = "Fc1ccc2c(c1)c(-c1nc(-c3c[nH]c4ncccc34)cs1)cn2CCCCN1CCCCC1"
target_desc = "SK-OV-3 ovarian"
cat = 1.0

[[record]]
molecule = "C/C(=C\\c1cc(C(F)(F)F)nn1CCNC(=O)OC(C)(C)C)[C@@H]1C[C@@H]2O[C@]2(C)CCC[C@H](C)[C@H](O)[C@@H](C)C(=O)C(C)(C)[C@@H](O)CC(=O)O1"
target_desc = "SK-OV-3 ovarian"
cat = 0.0

[[record]]
molecule = "COc1ccc2c(c1)c(C1(O)CC(CSC#N)OC1=O)cn2C(=O)c1ccc(Cl)cc1 (centres undefined)"
target_desc = "SK-OV-3 ovarian"
cat = 0.0


Lab note: next molecule to report on.
Entry CCCC(C)C1(CC)C(=O)NC(=O)N(C)C1=O (centres undefined) : call = ?
0.0

###

System: HOP-92 NSCLC
Assay: NCI-60 one-dose screen, 48 h (100 = growth as untreated, 0 = no growth, -100 = all killed)
Settings: 10 µM unless noted
This is part of a sample that, as a whole, favours compounds with a hit. Of some 83,000 tested, about 20% had one in any assay.
Assign class by growth: not lower than 30% means Satisfied; lower than 30% means Not satisfied.

[[record]]
molecule = "N/C(=N\\N=C\\c1ccc(-c2ccccc2)cc1)N[N+](=O)[O-]"
cat = "Satisfied"

[[record]]
molecule = "Nc1c(F)cc(-c2nc3cc(F)ccc3[se]2)cc1Br"
cat = "Satisfied"

[[record]]
molecule = "O=[N+]([O-])c1cc([N+](=O)[O-])c(Nn2c3ccccc3c3ccccc32)c([N+](=O)[O-])c1"
cat = "Not satisfied"

[[record]]
molecule = "COC(=O)[C@H](Cc1ccccc1)NNC(=O)c1csc([C@@H](C[C@H](C(C)C)N(C)C(=O)[C@@H](NC(=O)[C@H]2CCCCN2C)C2CC2)OC(C)=O)n1"
cat = "Not satisfied"

[[record]]
molecule = "C[C@]12CC[C@@H]3c4ccc(Oc5nc(N6CC6)nc(N6CC6)n5)cc4CC[C@H]3[C@@H]1CCC2=O"
cat = "Satisfied"

[[record]]
molecule = "CC(C)=CCc1c(O)c(C(=O)CC(C)C)c(O)c2c(-c3ccccc3)cc(=O)oc12"
cat = "Not satisfied"

[[record]]
molecule = "N#Cc1c(Br)n(C2OC(CO)C(O)C2O)c2ncnc(N)c12 (configuration not stated)"
cat = "Satisfied"

[[record]]
molecule = "Nc1nnnc2nc[nH]c12"
cat = "Not satisfied"


Is it the case that COc1ccc([As]=[As]c2ccc(OC)c(NCS(=O)(=O)O)c2)cc1NCS(=O)(=O)O (configuration not stated) has growth reaching or exceeding 30%?
Not satisfied

Item CCOC(=O)[C@@H](C)C[C@H](Cc1ccccc1)NC(=O)c1csc([C@@H](C[C@H](C(C)C)N(C)C(=O)[C@H](CC)NC(=O)[C@H]2CCCCN2C)OC(C)=O)n1 with growth of 30% or above?
Satisfied

Has COc1ccc(/C=C\c2cc(OC)c(OC)c(OC)c2)cc1OCC(=O)Nc1nc2ccc(C(F)(F)F)cc2s1 a recorded growth greater than or equal to 30%?
Satisfied

###

System: M14 melanoma
Assay: NCI-60 one-dose screen, 48 h
Settings: 10 µM unless noted
Description: Growth inhibition of the M14 human tumor cell line is measured as a screen for anti-cancer activity. Cells are grown in 96 well plates and exposed to the test compound for 48 hours. Compounds are tested at a single concentration, which is 10^-5 M for most compounds. The reported endpoint is percent growth (GI% or GIPRCNT), where numbers from 0 - 100% represent growth inhibition, and numbers from -100% - 0 represent cell death. For example, a value of 40 represents 60% growth inhibition. […]
The panel holds about 83,000 compounds, 20% with a hit somewhere; the sample as a whole holds those more often. Active and inactive are the calls of the source. How the source made its calls: active means growth percent below 10; inactive means the rest.
Outcomes you can answer with include only these: yes (1) for active, no (0) for inactive

[[record]]
compound = "O=[N+]([O-])c1cc([N+](=O)[O-])c(Nn2c3ccccc3c3ccccc32)c([N+](=O)[O-])c1"
cat = "yes (1)"


GET /call?item= COC(=O)[C@@H](C)C[C@H](Cc1ccccc1)NC(=O)c1csc([C@@H](C[C@H](C(C)C)N(C)C(=O)[C@@H](NC(=O)CN(C)C)C2CC2)OC(C)=O)n1 returns the recorded outcome of this test.
no (0)

# lookup: test call for CCC(O)(CN)c1ccccc1 (stereo not given)
no (0)

What did this assay record as the result for COC(=O)[C@@H](C)C[C@H](Cc1ccccc1)NC(=O)c1csc([C@@H](C[C@H](C(C)C)N(C)C(=O)[C@H](C)NC(=O)[C@H]2CCCCN2C)OC(C)=O)n1 ?
yes (1)

Short answer needed: outcome of this test for CC1CN1CCCCN1CC1C (stereo not given) ?
no (0)

The reported measurements were obtained from PubChem BioAssay (NCI).
